experiment: Human HepG2 cell viability assay in 384 well format; assay type: toxicity, cell-based; parameters: dose 125 nL, time 70.5 hour; concentration not given beside the values; conditions: HepG2 cells, read-out: Inhibition
property measured: cytotoxicity at 70.5 h (%)

[[record]]
compound = "COc1cccc(OCC2CCCN(c3cc(C(N)=O)ccn3)C2)c1 (stereo unspecified)"
observed = -11.8

[[record]]
compound = "CN(C)S(=O)(=O)N1CC[C@]2(O)CCN(Cc3cc(F)cc(F)c3)C[C@@H]2C1"
observed = 10.9

[[record]]
compound = "C1CC(CN2CCOCC3(CCN(C4CCOCC4)C3)C2)CCO1 (stereo unspecified)"
observed = -6.07

[[record]]
compound = "O=C(c1ccc(Cn2cccc2)cc1)N1CCN(CCO)CC1"
observed = -4.52

[[record]]
compound = "Cc1nn(-c2ccccc2)cc1C(=O)N1CCCC(n2cccn2)C1 (stereo unspecified)"
observed = -1.21

[[record]]
compound = "Cc1ccc(S(=O)(=O)Nc2ccc(-n3cccc3C(=O)O)c(C)c2)s1"
observed = -3.61

[[record]]
compound = "CN(Cc1cnccn1)c1cncc(Br)c1"
observed = -22

[[record]]
compound = "O=C(Cc1ccc2c(c1)CCC2)N1CCCC1Cn1cccn1 (stereo unspecified)"
observed = 26.4

[[record]]
compound = "CCOC(=O)C1CN(C(=O)C2CCOCC2)Cc2ncn(CC)c21 (stereo unspecified)"
observed = -3.55

[[record]]
compound = "Cc1cc(C)n(C2CCCN(C(=O)CCc3nccs3)C2)n1 (stereo unspecified)"
observed = 28.2

[[record]]
compound = "CC(C(=O)Nc1ccccc1F)S(C)(=O)=O (stereo unspecified)"
observed = 2.07

[[record]]
compound = "COc1ccc2c(c1)CN(Cc1nc3ccsc3c(=O)[nH]1)CC2"
observed = 5.83

[[record]]
compound = "Cc1cc(C)n(CC2CCCCN2C(=O)c2cnn(C)c2)n1 (stereo unspecified)"
observed = 8.99

[[record]]
compound = "Cc1ccccc1Oc1ncccc1CNS(C)(=O)=O"
observed = 19.1

[[record]]
compound = "O=C(N[C@@H]1CCN(C(=O)c2cc[nH]c2)C[C@H]1O)c1ccccn1"
observed = -0.892

[[record]]
compound = "Cc1ccc2c(c1)C(NC(C)C)CC21CCNCC1 (stereo unspecified)"
observed = -1.86


---

test: Human HepG2 cell viability assay in 384 well format; type: toxicity, cell-based; set-up: dose 125 nL, time 70.5 hour; concentration not given beside the values; details: HepG2 cells, read-out: Inhibition
property measured: cytotoxicity at 70.5 h (%)

[[record]]
compound = "O=C(NCCc1cc(N2CCOCC2)nc(NC2CC2)n1)C1CCCO1 (stereo not given)"
observed = -6.3

[[record]]
compound = "Cc1cc(CC(=O)NC2CCCN(c3ccccc3F)C2=O)n[nH]1 (stereo not given)"
observed = 2.16

[[record]]
compound = "CCc1nsc(N2CCCN(C(=O)c3ccc(OC)cc3)CC2)n1"
observed = -10.9

[[record]]
compound = "O=C1CCC2(CCCO2)CCN1Cc1noc(C2CCCC2)n1 (stereo not given)"
observed = 0.738

[[record]]
compound = "c1ccc(-c2nc(CN3CCn4c(nnc4C4CC4)C3)cs2)cc1"
observed = -11.8

[[record]]
compound = "COc1ccccc1OCC(=O)NS(=O)(=O)c1ccc(F)cc1F"
observed = -8.29

[[record]]
compound = "c1cc(-c2noc([C@@H]3CCCN3C3CCC3)n2)cc(N2CCCC2)n1"
observed = -6.56

[[record]]
compound = "C[S+]([O-])c1cccc(NC(=O)N(CCC#N)Cc2ccccn2)c1 (stereo not given)"
observed = -12

[[record]]
compound = "CCCc1nc(C(=O)N2C[C@H](CO)C[C@H](CN3CCOCC3)C2)cs1"
observed = -8.72

[[record]]
compound = "N#Cc1ccc(N2CCC(OC3CCOCC3)CC2)cc1Cl"
observed = 1.95

[[record]]
compound = "O=C(c1ccccn1)N1CCC2(CC1)C(=O)Nc1ccccc12"
observed = -9.49

[[record]]
compound = "CCS(=O)(=O)N1Cc2nccn2CC(COc2cccnc2)C1 (stereo not given)"
observed = -2.17

[[record]]
compound = "Cc1cnc(CCNC(=O)NCCOc2ncccc2Cl)s1"
observed = -2.69

[[record]]
compound = "CC(C)(C)c1cc(CNC(=O)c2cc(COc3ccccc3)[nH]n2)[nH]n1"
observed = 8.48

[[record]]
compound = "COCCN(CCOC)C(=O)c1cnn(C)c1-n1c(C)ccc1C"
observed = 1.05

[[record]]
compound = "CN(Cc1nc(CC2CC2)no1)CC1Cc2ccccc2O1 (stereo not given)"
observed = -6.88

[[record]]
compound = "CC(C)c1nc2c(n1C)CCN(CC(=O)NCc1ccccn1)C2"
observed = -0.491

[[record]]
compound = "c1cnc(N2C[C@H](OCC3CCOCC3)[C@H]3COC[C@H]32)nc1"
observed = -1.34

[[record]]
compound = "O=C(O)CCCc1ccc2c(c1)CC(=O)N2"
observed = -9.78

[[record]]
compound = "CCCn1cnnc1CNC1CSCCSC1"
observed = -9.24

[[record]]
compound = "CC(C)OCCN1CCN(C(=O)c2cccc(CC#N)c2)CC1"
observed = -12

[[record]]
compound = "Cc1cc(C(F)(F)F)c2c(=O)n(Cc3ccon3)n(C)c2n1"
observed = -5.27

[[record]]
compound = "O=C(c1ncoc1C1CC1)N1CCCN(CCCc2ccccc2)CC1"
observed = -10.2

[[record]]
compound = "Cc1nn(C)cc1-c1cc(-c2cn(C)nc2C)n(CC(=O)NC2CC2)n1"
observed = -7.88

[[record]]
compound = "CN(C)C(=O)CN1C[C@H]2CCN(C(=O)c3ccncc3)CC[C@H]2S1(=O)=O"
observed = -3.99

[[record]]
compound = "CN(C)Cc1nn(C)c2c1CCN(C(=O)CC1CC1)C2"
observed = 39.3

[[record]]
compound = "O=C(NCCS(=O)(=O)N1CCN(c2ncccn2)CC1)c1ccccc1"
observed = -7.9

[[record]]
compound = "CC(C)c1cc(NC(=O)CN2CCC(N3CCCCC3)CC2)on1"
observed = -1.37

[[record]]
compound = "Cc1nnc(CCNC(=O)C(c2ccc(F)cc2)N(C)C)[nH]1 (stereo not given)"
observed = 25

[[record]]
compound = "CN(C)CC1CN(Cc2ccc(F)cc2)Cc2nccn2C1 (stereo not given)"
observed = -4.49

[[record]]
compound = "CCOCC1CN(C(=O)Cc2ccccn2)Cc2cnn(C)c21 (stereo not given)"
observed = -3.1

[[record]]
compound = "CC(C)c1cc(NC(=O)CN2CCc3ccccc3C2)on1"
observed = -6.95

[[record]]
compound = "O=C(NCc1cc(Cl)ccn1)NCc1ccco1"
observed = 13.9

[[record]]
compound = "c1ccc(-n2nnnc2CNCC2CCCN2c2cccnn2)cc1 (stereo not given)"
observed = -0.967

[[record]]
compound = "CCOCC1CN(Cc2cccnc2)Cc2nn(C)cc21 (stereo not given)"
observed = -11.3

[[record]]
compound = "Cc1c(C)n2c(SCC(=O)N3CCCCCC3)nnc2[nH]c1=O"
observed = -7.58

[[record]]
compound = "CCn1c(CN(C)C(=O)c2ccc(O)nc2)nc2ccccc21"
observed = -5.75

[[record]]
compound = "CNc1cc2c(nn1)CCN(C(=O)c1ccc3c(c1)OCO3)C2"
observed = -8.95

[[record]]
compound = "COc1c(C2CCCN2C(=O)c2cc(C)on2)c(C)nn1C (stereo not given)"
observed = -8.13

[[record]]
compound = "CC(C)c1cccc(-n2cc(O)c(C(=O)O)n2)c1"
observed = -5.44

[[record]]
compound = "Cc1cnn(CC2CCCCN2Cc2noc(C3CC3)n2)c1 (stereo not given)"
observed = -6.32

[[record]]
compound = "CCc1nccn1C1CCCN(C(=O)c2ccc3nnc(C)n3c2)C1 (stereo not given)"
observed = -2.12

[[record]]
compound = "CCn1ccc(C(=O)N(C)Cc2cnn(-c3cccc(OC)c3)c2)n1"
observed = -11.2

[[record]]
compound = "O=C(Cc1ccc2c(c1)OCCCO2)Nc1nnn[nH]1"
observed = -6.98

[[record]]
compound = "CS(=O)(=O)N1CCCCC1CCc1ccc(O)cc1 (stereo not given)"
observed = 16.6


---

test: Human HepG2 cell viability assay in 384 well format; type: toxicity, cell-based; parameters: dose 125 nL, time 70.5 hour; concentration not given beside the values; conditions: HepG2 cells, read-out: Inhibition
We begin with a simple list: items and their reported cytotoxicity at 70.5 h.
property measured: cytotoxicity at 70.5 h (%)

[[record]]
molecule = "Cc1ccc(OCCn2cnc3oc(C)c(C(=O)O)c3c2=O)cc1"
observed = 19.9

[[record]]
molecule = "CN1CCc2c(C#N)c(NCc3ccco3)n3cnnc3c2C1"
observed = -7.42

[[record]]
molecule = "CCCN(c1ccccc1C(=O)O)S(=O)(=O)c1cccc2cccnc12"
observed = -10.2

[[record]]
molecule = "Cc1noc(CNC(=O)CN(C)c2nc3ccccc3s2)n1"
observed = -5.76

[[record]]
molecule = "CC(NCC1CCN(CCO)CC1)c1ccc(C(F)(F)F)cc1 (stereo not given)"
observed = 14

[[record]]
molecule = "CN1CCN(CCOc2ccc(NC(=O)c3ccncc3)cc2)CC1"
observed = -3.29

[[record]]
molecule = "CCc1cnc(N2CC3(CCN(C(=O)c4ccoc4)C3)C2)nc1"
observed = -1.44

[[record]]
molecule = "CCn1cc(CNC(=O)C2CCCC2)cn1"
observed = -17.8

[[record]]
molecule = "COc1cc(C(=O)NCCS(=O)(=O)N(C)C)c2ccccc2n1"
observed = 1.37

[[record]]
molecule = "CCc1c(C(=O)N2CCN(C)[C@@H]3CS(=O)(=O)C[C@@H]32)[nH]c2ccccc12"
observed = -0.756

